- target_entity: CDK12 (Homo sapiens, UniProt Q9NYV4)
- Sequence (Q9NYV4 whole entry): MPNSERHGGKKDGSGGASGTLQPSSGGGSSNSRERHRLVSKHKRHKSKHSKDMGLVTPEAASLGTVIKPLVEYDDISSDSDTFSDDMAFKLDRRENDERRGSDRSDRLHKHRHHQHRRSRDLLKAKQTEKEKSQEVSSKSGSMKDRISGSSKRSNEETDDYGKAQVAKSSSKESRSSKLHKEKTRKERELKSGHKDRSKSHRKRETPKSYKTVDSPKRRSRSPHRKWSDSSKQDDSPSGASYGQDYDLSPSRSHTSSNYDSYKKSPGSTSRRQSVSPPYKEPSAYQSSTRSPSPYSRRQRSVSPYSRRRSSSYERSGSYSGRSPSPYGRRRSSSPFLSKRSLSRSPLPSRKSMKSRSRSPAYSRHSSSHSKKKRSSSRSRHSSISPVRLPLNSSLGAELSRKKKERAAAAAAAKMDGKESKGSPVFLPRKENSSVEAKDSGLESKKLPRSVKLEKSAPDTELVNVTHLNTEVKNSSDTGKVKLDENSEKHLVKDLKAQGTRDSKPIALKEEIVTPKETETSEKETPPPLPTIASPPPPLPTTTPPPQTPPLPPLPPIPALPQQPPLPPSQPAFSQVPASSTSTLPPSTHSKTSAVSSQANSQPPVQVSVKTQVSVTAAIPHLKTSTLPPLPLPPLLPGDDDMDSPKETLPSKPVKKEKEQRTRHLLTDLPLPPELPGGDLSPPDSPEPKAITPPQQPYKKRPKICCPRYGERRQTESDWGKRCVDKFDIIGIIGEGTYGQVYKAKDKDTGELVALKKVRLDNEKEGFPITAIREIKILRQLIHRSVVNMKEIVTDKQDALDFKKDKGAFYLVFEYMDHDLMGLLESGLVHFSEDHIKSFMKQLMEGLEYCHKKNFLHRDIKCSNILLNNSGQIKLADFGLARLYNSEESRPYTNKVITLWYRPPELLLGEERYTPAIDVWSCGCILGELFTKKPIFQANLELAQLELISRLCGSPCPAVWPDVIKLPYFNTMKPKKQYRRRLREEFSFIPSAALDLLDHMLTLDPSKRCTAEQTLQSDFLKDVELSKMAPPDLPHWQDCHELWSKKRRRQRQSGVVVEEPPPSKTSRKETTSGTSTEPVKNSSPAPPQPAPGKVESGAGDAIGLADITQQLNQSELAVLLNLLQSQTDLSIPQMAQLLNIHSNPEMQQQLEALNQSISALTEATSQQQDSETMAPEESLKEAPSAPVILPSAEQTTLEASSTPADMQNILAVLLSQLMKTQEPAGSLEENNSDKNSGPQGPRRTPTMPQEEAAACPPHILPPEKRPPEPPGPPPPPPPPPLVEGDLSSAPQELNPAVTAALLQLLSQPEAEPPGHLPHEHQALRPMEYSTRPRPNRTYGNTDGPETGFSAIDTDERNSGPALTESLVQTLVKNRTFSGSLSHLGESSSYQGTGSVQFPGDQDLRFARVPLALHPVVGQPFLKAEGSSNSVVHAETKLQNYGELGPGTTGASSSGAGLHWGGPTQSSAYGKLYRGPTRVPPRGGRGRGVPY
- Sequence (O75909 whole entry partner): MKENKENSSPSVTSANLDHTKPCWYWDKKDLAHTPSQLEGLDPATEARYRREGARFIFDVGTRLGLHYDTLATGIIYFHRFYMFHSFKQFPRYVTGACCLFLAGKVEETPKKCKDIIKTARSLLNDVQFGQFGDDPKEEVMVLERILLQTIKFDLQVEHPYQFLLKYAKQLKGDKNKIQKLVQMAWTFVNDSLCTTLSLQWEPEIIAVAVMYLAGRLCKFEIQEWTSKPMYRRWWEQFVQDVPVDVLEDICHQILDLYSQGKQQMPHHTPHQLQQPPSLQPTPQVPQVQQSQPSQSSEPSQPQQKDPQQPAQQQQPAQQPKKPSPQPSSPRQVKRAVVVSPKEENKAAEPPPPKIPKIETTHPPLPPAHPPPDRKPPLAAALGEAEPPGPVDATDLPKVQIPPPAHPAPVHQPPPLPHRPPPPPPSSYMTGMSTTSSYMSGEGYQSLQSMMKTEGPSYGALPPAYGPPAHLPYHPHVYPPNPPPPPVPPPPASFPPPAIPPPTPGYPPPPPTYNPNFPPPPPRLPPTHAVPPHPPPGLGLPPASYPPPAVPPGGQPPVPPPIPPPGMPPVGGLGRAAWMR
- protocol_summary: Inhibition of cyclin-dependent kinase 12 (% enzyme activity at 1 uM and IC50)
- Type: biochemical
Please use True for IC50 under 2000 nM and False for everything else, ties included.

Q: I'd appreciate it if you could check whether Cn1cc(-c2cnc3c(NCc4nc5cc(Cl)c(Cl)cc5[nH]4)cc(N4CCOCC4)nn23)cn1 has IC50 smaller than 2000 nM.
Ans: False

Q: I'd appreciate it if you could check whether CC1(C)CN(c2cc(NCc3nc4cc(Cl)c(Cl)cc4[nH]3)c3ncc(-c4cnn(C(F)F)c4)n3n2)CCO1 has IC50 smaller than 2000 nM.
Ans: False

Q: I'd appreciate it if you could check whether N#Cc1cc(-c2cnc3c(NCc4nc5cc(Cl)c(Cl)cc5[nH]4)cc(N4CCOCC4)nn23)cs1 has IC50 smaller than 2000 nM.
Ans: False

Q: I'd appreciate it if you could check whether FC(F)n1cc(-c2cnc3c(NCc4nc5cc(Cl)c(Cl)cc5[nH]4)cc(N4CCNCC4)nn23)cn1 has IC50 smaller than 2000 nM.
Ans: True

Q: I'd appreciate it if you could check whether CC(C)n1cc(-c2cnc3c(NCc4nc5cc(Cl)c(Cl)cc5[nH]4)cc(N4CCN(C)CC4)nn23)cn1 has IC50 smaller than 2000 nM.
Ans: False

Q: I'd appreciate it if you could check whether Cc1cc(-c2cnc3c(NCc4nc5c(F)cccc5[nH]4)cc(N4CCN(C)CC4)nn23)cs1 has IC50 smaller than 2000 nM.
Ans: True

Q: I'd appreciate it if you could check whether Cc1ccnc2[nH]c(CNc3cc(N4CCOCC4)nn4c(-c5cnn(C(C)C)c5)cnc34)nc12 has IC50 smaller than 2000 nM.
Ans: True

Q: I'd appreciate it if you could check whether CN1CCN(c2cc(NCc3nc4c(F)c(F)ccc4[nH]3)c3ncc(-c4cnn(C(F)F)c4)n3n2)CC1 has IC50 smaller than 2000 nM.
Ans: True

Q: I'd appreciate it if you could check whether NC1CCN(c2cc(NCc3nc4cccc(Cl)c4[nH]3)c3ncc(-c4ccsc4)n3n2)CC1 has IC50 smaller than 2000 nM.
Ans: True

Q: I'd appreciate it if you could check whether CN1CCN(c2cc(NCc3nc4c(F)c(F)ccc4[nH]3)c3ncc(-c4csc(C#N)c4)n3n2)CC1 has IC50 smaller than 2000 nM.
Ans: True

Q: I'd appreciate it if you could check whether Clc1cccc2nc(CNc3cc(N4CCNCC4)nn4c(-c5ccsc5)cnc34)[nH]c12 has IC50 smaller than 2000 nM.
Ans: True

Q: I'd appreciate it if you could check whether CN1CCN(c2cc(NCc3nc4cc(Cl)c(Cl)cc4[nH]3)c3ncc(-c4csc(C#N)c4)n3n2)CC1 has IC50 smaller than 2000 nM.
Ans: False

Q: I'd appreciate it if you could check whether CN1CCN(c2cc(NCc3nc4cc(Cl)c(Cl)cc4[nH]3)c3ncc(-c4cnn(C)c4)n3n2)CC1 has IC50 smaller than 2000 nM.
Ans: False

Q: I'd appreciate it if you could check whether Cc1ccnc2[nH]c(CNc3cc(N4CCOCC4)nn4c(-c5cnn(C)c5)cnc34)nc12 has IC50 smaller than 2000 nM.
Ans: True

Q: I'd appreciate it if you could check whether Cc1ccnc2[nH]c(CNc3cc(N4CCOCC4)nn4c(-c5ccsc5)cnc34)nc12 has IC50 smaller than 2000 nM.
Ans: False

Q: I'd appreciate it if you could check whether CN1CCC(Nc2cc(NCc3nc4cc(Cl)c(Cl)cc4[nH]3)c3ncc(-c4cnn(C(F)F)c4)n3n2)CC1 has IC50 smaller than 2000 nM.
Ans: True

Cited source for all entries: patent US20260055114A1
